Reported Ki values for the following binders.
ASSAY_TARGET: PA1b-binding site
TEST_DESCRIPTION: ligand binding assay with 125I-labeled toxin
PROPERTY: Ki (nM)

# BINDER, UOM, EXPERIMENTAL_RESULT
records = [
    ("AKCGEACDTQFNFCNAGDGCRCFITDAYLTLPGFCAQLST [AS40]", "nM", 10.3),
    ("EFCSSVGSFCSPFNTNPCGYLGNCRCVPYYLYGGTCENPFG [EG41]", "nM", 72.8),
    ("ADCSGICSPFEMPPCRSSDCRCIPIALIGGFCINPIS [AS37]", "nM", 15),
    ("DECWGPCSVLQTPPCPLSKCYCIPLFLVVGYCSHASS [DS37]", "nM", 694),
    ("ASCPNVGAVCSPFETKPCGNVKDCRCLPWGLFFGTCINPTG [AG41]", "nM", 1.3),
    ("ASCNGVCSPFEMPPCGTSACRCIPVGLVIGYCRNPSG [PA1b polypeptide of Pisum sativum]", "nM", 17),
]

Reference source for all entries: patent US20160297857A1
